Listing: normalized growth of selected compounds
assay: chemical genetic growth profiling, strain panel (AID 1159580);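 further: tested at 20 µM; growth read once vehicle control cultures reached saturation at 30 °C; 1 = growth at the plate median or of vehicle wells; lower values mean less growth of the strain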; details: S. cerevisiae deletion strains, growth OD, locus YOL006C, strain TOP1, active compounds read low
About 2,000 (36%) of roughly 5,500 compounds were called active. Roughly 18% stayed inconclusive and do not appear here. The list shows a part of the results.
No unit in the answer, only the number.

These solved cases illustrate the format of a correct answer.
>>> value_measured("C=C1CCC(=O)C(C)CCC2C1CC2(C)C (centres undefined)")
1.03
>>> value_measured("O=C1OC(c2ccc(O)cc2)(c2ccc(O)cc2)c2ccccc21")
0.952
>>> value_measured("NC[C@@H]1CC[C@@H](N)[C@@H](O[C@H]2[C@H](O)[C@@H](O[C@H]3O[C@H](CO)[C@@H](O)[C@H](N)[C@H]3O)[C@H](N)C[C@@H]2N)O1")
0.917

For the next question, use this compound.
In: Quick one: normalized growth for CC1(C)O[C@@H]2CC3C4CCC5=CC(=O)CCC5(C)C4(F)C(O)CC3(C)[C@]2(C(=O)CCl)O1 (some centres undefined) ?
Out: 1.01

---

assay: chemical genetic growth profiling, strain panel (AID 1159580);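 further: tested at 20 µM; growth read once vehicle control cultures reached saturation at 30 °C; 1 = growth at the plate median or of vehicle wells; lower values mean less growth of the strain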; conditions: S. cerevisiae deletion strains, growth OD, locus YGR252W, strain gcn5, active compounds read low
The campaign covered roughly 5,500 compounds. About 2,000 (36%) were called active. About 18% were inconclusive and are not listed. The list shows a part of the results.
result_type: normalized growth
No unit in the answer, only the number.

These solved cases illustrate the format of a correct answer.
>>> value_measured("CCC(C)(C)C(=O)O[C@H]1C[C@@H](C)C=C2C=C[C@H](C)[C@H](CC[C@@H]3C[C@@H](O)CC(=O)O3)[C@H]21")
0.983
>>> value_measured("C[C@@H]1C(=O)OC2[C@H](O)C34[C@@H]5OC(=O)[C@@]3(O[C@@H]3OC(=O)[C@H](O)[C@@]34[C@H](C(C)(C)C)[C@H]5O)[C@]21O (stereo partly drawn)")
1.01
>>> value_measured("CC1C[C@H]2CC(=O)[C@H]3CCCN4CCC[C@H]2[C@]34C1 (stereo partly drawn)")
0.999
>>> value_measured("NC[C@@H]1CC[C@@H](N)[C@@H](O[C@H]2[C@H](O)[C@@H](O[C@H]3O[C@H](CO)[C@@H](O)[C@H](N)[C@H]3O)[C@H](N)C[C@@H]2N)O1")
1.02
>>> value_measured("CC(=O)OCC(OC(C)=O)C(OC(C)=O)C(OC(C)=O)C(OC(C)=O)C(COC(C)=O)OC(C)=O (stereo not drawn)")
0.996
>>> value_measured("Cc1cccc(C(=O)O)c1O")
1

In: Quick one: normalized growth for C=C1C(=O)OC2CC1C(OC(C)=O)C/C(C)=C/CC/C(C)=C/CC[C@]2(C)O (stereo partly drawn) ?
Out: 1.01

In: Quick one: normalized growth for `NC(=O)c1cccc(N)c1` ?
Out: 0.978

---

assay: chemical genetic growth profiling, strain panel (AID 1159580);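 further: tested at 20 µM; growth read once vehicle control cultures reached saturation at 30 °C; 1 = growth at the plate median or of vehicle wells; lower values mean less growth of the strain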; details: S. cerevisiae deletion strains, growth OD, locus YHR030C, strain SLT2, active compounds read low
Out of some 5,500 compounds screened, about 2,000 (36%) were called active. About 18% were inconclusive and are not listed. This is one part of the list.
result_type: normalized growth
No unit in the answer, only the number.

>>> value_measured("N#Cc1ncc(C(F)(F)F)cc1Oc1ccc(Cl)cc1")
0.843
>>> value_measured("O=C(/C=C/Sc1nc2ccccc2s1)c1ccc(Cl)cc1")
0.697
>>> value_measured("Cc1onc(-c2ccccc2)c1NC(=O)Nc1c(Cl)cccc1Cl")
0.811
>>> value_measured("N#C/C(=C\\c1ccc(Oc2ccccc2)nc1)S(=O)(=O)c1ccccc1")
0.978
>>> value_measured("Cc1cccc(C(=O)O)c1O")
1.02
>>> value_measured("CC(C)n1cc(C#N)c(=O)n(Cc2ccccc2)c1=O")
0.983

In: Quick one: normalized growth for `COC(=O)c1c(-c2c(Cl)cccc2Cl)noc1NC(=O)NN1CCCCC1` ?
Out: 0.973

In: Quick one: normalized growth for `O=c1c2ccccc2[nH]c(=S)n1-c1cccc(C(F)(F)F)c1` ?
Out: 0.334

In: Quick one: normalized growth for `FC(F)(F)c1ccnc(N2CCCN(C(=S)Nc3ccc(Cl)cc3Cl)CC2)n1` ?
Out: 0.712

In: Quick one: normalized growth for `Cc1cccc(NC(=S)NNC(=O)CSCc2cccc3ccccc23)c1` ?
Out: 0.997

In: Quick one: normalized growth for CC1OC1P(=O)(O)O (stereo not given) ?
Out: 0.994

In: Quick one: normalized growth for `c1ccc(-c2cc3c(nn2)CCc2nonc2-3)cc1` ?
Out: 0.784

In: Quick one: normalized growth for `ClC1=C(C=Nc2ccc(Cl)cc2)CSc2ccc(Cl)cc21` ?
Out: 0.74

In: Quick one: normalized growth for `NC[C@@H]1CC[C@@H](N)[C@@H](O[C@H]2[C@H](O)[C@@H](O[C@H]3O[C@H](CO)[C@@H](O)[C@H](N)[C@H]3O)[C@H](N)C[C@@H]2N)O1` ?
Out: 0.995

In: Quick one: normalized growth for `CSC(=NC#N)N1CCN(c2ccc([N+](=O)[O-])cn2)CC1` ?
Out: 0.958

In: Quick one: normalized growth for `CC(=O)CC(=O)Nc1ccccc1Cl` ?
Out: 0.966

In: Quick one: normalized growth for `O=[N+]([O-])c1ccc(Sc2ssc(=S)c2-c2ccccc2)nc1` ?
Out: 0.159

Values compiled from PubChem BioAssay AID1159580.
